B1: KCNAB2 (parent)
chain: YVDVVFANRPDPNTPMEETVRAMT

- Variants of: B1
- Measurement notes: protein stability index of a GFP-peptide fusion (GPS, HEK-293T) (PSI 1-6); higher = more stable;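 further: lentivirally expressed fusions sorted by FACS into six bins by GFP to DsRed ratio, PSI derived from sequencing read proportions per bin multiplied by bin number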
- Cond: c terminus: a fixed tail appended
Label true for high-side protein stability index (at or above 2) and false for low-side protein stability index (below it).

Examples from the recorded data:
1. YVDVVFANRPDPNTPMEETGRAMT	true
2. YPDVVFANRPDPNTPMEETVRAMT	true
3. YVDVVFANRPDPNTPMEETVRIMT	false
4. YVDVVFANRPDPNTMMEETVRAMT	true
5. YVDVVFANRPDPNTPYEETVRAMT	true

Exam item: Reported protein stability index at or above 2? `YVDVVFANRPDPNHPMEETVRAMT`
Marked response: true

Exam item: Would you kindly repeat that for `YVDVVFANRPRPNTPMEETVRAMT` ?
Marked response: false

Exam item: Next variant: `YVDVVFANNPDPNTPMEETVRAMT`
Marked response: true

Exam item: Consider next the variant `YVDVVFANRPDPNTPMEETVEAMT` in the same way.
Marked response: true

Exam item: Then this variant: `YVDVVFANRPDPNTPMEETVRART`
Marked response: true
